# Protocol: Plasma pharmacokinetics of Compound 1 in patients with advanced solid tumor malignancies and TGCT
# Assay type: in vivo, human
# Reported Conditions: human, plasma, oral, 20 mg, Cohort 4 20 mg Twice Weekly after 5-day QD loading dose; C1D8; GM (CV %)
Outcome Measure: Cmax (ng/mL)
The reply should be a number in ng/mL, with the unit left off.

Please report the measured Cmax for Cc1nc(-c2cnc(NC(C)C)n(C)c2=O)ccc1Oc1ccnc(-c2cnn(C)c2)c1 [Compound 1]
685

----------
# Protocol: Plasma pharmacokinetics of Compound 1 in patients with advanced solid tumor malignancies and TGCT
# Format: in vivo, human
# Reported Conditions: human, plasma, oral, 20 mg, Cohort 4 20 mg Twice Weekly after 5-day QD loading dose; C1D8; GM (CV %); read-out: AUC0-8
Outcome Measure: AUC(0-t) (µg·h/mL)
Form entry: value (µg·h/mL) — number only.

// fetch AUC(0-t) given entry Cc1nc(-c2cnc(NC(C)C)n(C)c2=O)ccc1Oc1ccnc(-c2cnn(C)c2)c1
4.66
